target: COVID S1 RBM Fc fusion (Antigen 2) (SARS-CoV-2, UniProt P0DTC2 437-508); experiment: phage ELISA
Overview of recorded ELISA fold over background for various binders
Output spec: scalar in fold, unitless text.

Reference set, count: 5
BINDER: SARS-CoV-2 variant 1-5 (antibody, V domains shown) VH: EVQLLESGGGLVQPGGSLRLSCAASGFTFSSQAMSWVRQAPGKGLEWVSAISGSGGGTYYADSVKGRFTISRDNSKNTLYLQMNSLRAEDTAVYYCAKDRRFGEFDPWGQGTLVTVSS VL: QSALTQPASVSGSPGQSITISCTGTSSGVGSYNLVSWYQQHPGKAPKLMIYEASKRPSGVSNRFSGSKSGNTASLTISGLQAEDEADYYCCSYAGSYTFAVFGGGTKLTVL
ELISA fold over background / fold: 1.4
//
BINDER: SARS-CoV-2 variant 1-49 (antibody, V domains shown) VH: EVQLLESGGGLVQPGGSLRLSCAASGFTFSSYAMYWVRQAPGKGLEWVSAISGSAGSTYYADSVKGRFTISRDNSKNTLYLQMNSLRAEDTAVYYCARDTNDFWGQGTLVTVSS VL: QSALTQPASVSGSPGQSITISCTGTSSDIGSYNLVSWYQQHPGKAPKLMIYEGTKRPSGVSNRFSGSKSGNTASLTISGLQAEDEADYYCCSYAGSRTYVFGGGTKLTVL
ELISA fold over background / fold: 0.8
//
BINDER: SARS-CoV-2 variant 1-32 (antibody, V domains shown) VH: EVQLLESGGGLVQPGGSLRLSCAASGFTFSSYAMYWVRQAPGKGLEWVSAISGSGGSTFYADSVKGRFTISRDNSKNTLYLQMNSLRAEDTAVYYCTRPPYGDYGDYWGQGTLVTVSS VL: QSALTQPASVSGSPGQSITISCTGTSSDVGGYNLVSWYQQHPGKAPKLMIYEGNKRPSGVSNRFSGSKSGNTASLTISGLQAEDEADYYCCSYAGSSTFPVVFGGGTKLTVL
ELISA fold over background / fold: 1.1
//
BINDER: SARS-CoV-2 variant 1-35 (antibody, V domains shown) VH: EVQLLESGGGLVQPGGSLRLSCAASGFTFSNYAMSWVRQAPGKGLEWVSDISGSGGSTYYADSVKGRFTISRDNSKNTLYLQMNSLRAEDTAVYYCVKGTIPIFGVIRSAFDYWGQGTLVTVSS VL: QSALTQPASVSGSPGQSITISCTGTSSDVGSYSLVSWYQQHPGKAPKLMIYEGTKRPSGVSNRFSGSKSGNTASLTISGLQAEDEADYYCCSYAGSYSYVVFGGGTKLTVL
ELISA fold over background / fold: 1.6
//
BINDER: SARS-CoV-2 variant 1-23 (antibody, V domains shown) VH: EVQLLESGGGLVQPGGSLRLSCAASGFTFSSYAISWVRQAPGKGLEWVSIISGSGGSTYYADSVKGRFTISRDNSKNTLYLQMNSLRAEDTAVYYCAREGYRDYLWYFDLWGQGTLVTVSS VL: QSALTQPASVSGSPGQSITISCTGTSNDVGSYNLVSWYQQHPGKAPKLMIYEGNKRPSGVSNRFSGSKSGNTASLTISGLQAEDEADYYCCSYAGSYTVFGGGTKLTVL
ELISA fold over background / fold: 1.6

In one line, give reported ELISA fold over background of the entry SARS-CoV-2 variant 1-27 (antibody, V domains shown) VH: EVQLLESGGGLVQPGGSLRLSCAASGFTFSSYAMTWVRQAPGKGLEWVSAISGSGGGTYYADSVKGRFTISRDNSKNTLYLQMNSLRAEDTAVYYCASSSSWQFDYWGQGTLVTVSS VL: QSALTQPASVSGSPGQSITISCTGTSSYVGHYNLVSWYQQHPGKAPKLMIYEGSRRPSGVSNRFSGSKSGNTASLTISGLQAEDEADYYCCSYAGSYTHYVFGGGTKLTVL .
1.6

Return reported ELISA fold over background. Input binder: SARS-CoV-2 variant 1-4 (antibody, V domains shown) VH: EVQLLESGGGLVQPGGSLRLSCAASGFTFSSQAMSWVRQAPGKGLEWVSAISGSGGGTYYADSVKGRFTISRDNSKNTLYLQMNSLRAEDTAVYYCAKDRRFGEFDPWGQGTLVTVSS VL: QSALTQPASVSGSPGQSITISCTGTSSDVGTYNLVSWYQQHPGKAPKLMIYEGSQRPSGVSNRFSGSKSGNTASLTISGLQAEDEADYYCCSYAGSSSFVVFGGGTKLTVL
1.1

Please list ELISA fold over background recorded for the binder SARS-CoV-2 variant 1-7 (antibody, V domains shown) VH: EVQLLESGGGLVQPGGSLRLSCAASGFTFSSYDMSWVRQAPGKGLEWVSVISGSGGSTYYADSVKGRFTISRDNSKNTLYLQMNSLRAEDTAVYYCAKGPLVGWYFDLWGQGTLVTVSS VL: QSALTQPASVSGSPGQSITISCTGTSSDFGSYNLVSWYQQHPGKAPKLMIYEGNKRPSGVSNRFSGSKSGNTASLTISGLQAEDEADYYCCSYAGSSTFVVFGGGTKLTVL
1.6

Report measured ELISA fold over background; entry is SARS-CoV-2 variant 1-24 (antibody, V domains shown) VH: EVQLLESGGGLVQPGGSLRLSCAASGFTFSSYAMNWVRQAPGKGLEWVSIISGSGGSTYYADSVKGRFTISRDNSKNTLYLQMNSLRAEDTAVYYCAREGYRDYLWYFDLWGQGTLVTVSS VL: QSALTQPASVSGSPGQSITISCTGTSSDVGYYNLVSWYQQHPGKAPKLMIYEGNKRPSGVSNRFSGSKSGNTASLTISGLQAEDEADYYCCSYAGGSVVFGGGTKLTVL
1.3

// Input: SARS-CoV-2 variant 1-31 (antibody, V domains shown) VH: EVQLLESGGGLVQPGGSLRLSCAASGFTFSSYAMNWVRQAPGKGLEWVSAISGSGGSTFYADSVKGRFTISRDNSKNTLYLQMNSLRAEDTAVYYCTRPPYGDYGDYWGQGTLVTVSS VL: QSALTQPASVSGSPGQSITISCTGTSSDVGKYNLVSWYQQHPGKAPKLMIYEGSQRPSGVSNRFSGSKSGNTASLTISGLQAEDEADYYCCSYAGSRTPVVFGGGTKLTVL . Output its ELISA fold over background only.
1.2

Data credit: patent US20210355194A1
